- ASSAY_NOTES: Absorption and distribution: concentration in blood and organs after oral administration, bioassay by cup method
- Type: in vivo
- CONDITION_INFO: rat; rats, fasted, 10 mg/kg oral, kidney, 1 hr after administration; Mean ± S.D. (n=5); read-out: Concentration in organs: Kidney
Counter-ions that a name gives are not always drawn.
Exercise: for every item that follows, state its recorded concentration at 1 h.
Numbers only, in ng/g.

CCNCC1CCN(c2c(F)cc3c(=O)c(C(=O)O)cn(C4CC4)c3c2Cl)C1 (centres unmarked) [Example 13] | 4700

# evaluate next
Input line: Respond only with concentration at 1 h recorded for CCNCC1CCN(c2c(F)cc3c(=O)c(C(=O)O)cn(C4CC4)c3c2F)C1 (centres unmarked) [Example 2, hydrochloride]
Output line: 6720
